A collection of sequences and their measured recombinant UMI read abundance (log10)
# TEST_SUMMARY: recombinant UMI read abundance after kanamycin selection (control-corrected) (log10(CPM+1)); higher = more efficient recombination; extreme values may be limits of the assay; sequences stand for … in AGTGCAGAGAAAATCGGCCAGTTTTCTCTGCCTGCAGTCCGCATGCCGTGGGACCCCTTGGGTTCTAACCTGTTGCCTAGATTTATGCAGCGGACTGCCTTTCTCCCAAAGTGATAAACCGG…AGGTTGGTTTCACT; site = the 11-nt donor;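 note: IS621 bridge recombinase in Escherichia coli cells against a fixed T5 target plasmid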
READOUT_KIND: recombinant UMI read abundance (log10)

[[record]]
query_sequence = "ACAGTAGCATGGACCGGTTTTCCCGGTAATCCGTATTTGCG (site ACAGTAGCTCG)"
readout_kind = "recombinant UMI read abundance (log10)"
numeric_value = 2.42

[[record]]
query_sequence = "TAGCCTTCATGGACCGGTTTTCCCGGTAATCCGTATTTGGT (site TAGCCTTCTGC)"
readout_kind = "recombinant UMI read abundance (log10)"
numeric_value = 0

[[record]]
query_sequence = "CCCTCCTCATGGACCGGTTTTCCCGGTAATCCGTATTTGGG (site CCCTACTCTCC)"
readout_kind = "recombinant UMI read abundance (log10)"
numeric_value = 0.0129

[[record]]
query_sequence = "AGCTCTGCATGGACCGGTTTTCCCGGTAATCCGTATTTGGG (site AGCTCTGCTCC)"
readout_kind = "recombinant UMI read abundance (log10)"
numeric_value = 0.25

[[record]]
query_sequence = "ATGTAGGCATGGACCGGTTTTCCCGGTAATCCGTATTTGGC (site ATGCAGGCTGC)"
readout_kind = "recombinant UMI read abundance (log10)"
numeric_value = 2.19

[[record]]
query_sequence = "GGTCGGACATGGACCGGTTTTCCCGGTAATCCGTATTTGCG (site GGTCGGACTCG)"
readout_kind = "recombinant UMI read abundance (log10)"
numeric_value = 1.29

[[record]]
query_sequence = "GATTAGCCATGGACCGGTTTTCCCGGTAATCCGTATTTGCT (site GATTAACCTAG)"
readout_kind = "recombinant UMI read abundance (log10)"
numeric_value = 0

[[record]]
query_sequence = "CGGAATTCATGGACCGGTTTTCCCGGTAATCCGTATTTGTA (site CGGAATCCTAA)"
readout_kind = "recombinant UMI read abundance (log10)"
numeric_value = 0.00369

[[record]]
query_sequence = "AATGTGTCATGGACCGGTTTTCCCGGTAATCCGTATTTGGC (site AATGTGTCTGC)"
readout_kind = "recombinant UMI read abundance (log10)"
numeric_value = 2.67

[[record]]
query_sequence = "CCTATTTCATGGACCGGTTTTCCCGGTAATCCGTATTTGTC (site CCTATTTCTGA)"
readout_kind = "recombinant UMI read abundance (log10)"
numeric_value = 0

[[record]]
query_sequence = "GATTGGACATGGACCGGTTTTCCCGGTAATCCGTATTTGGC (site GATTGGACTGC)"
readout_kind = "recombinant UMI read abundance (log10)"
numeric_value = 1.65

[[record]]
query_sequence = "TGGCCGGCATGGACCGGTTTTCCCGGTAATCCGTATTTGGC (site TGGCCGGCTGT)"
readout_kind = "recombinant UMI read abundance (log10)"
numeric_value = 0

[[record]]
query_sequence = "ACACTATCATGGACCGGTTTTCCCGGTAATCCGTATTTGTA (site ACAGTATCTTG)"
readout_kind = "recombinant UMI read abundance (log10)"
numeric_value = 0

[[record]]
query_sequence = "AGAGTGGCATGGACCGGTTTTCCCGGTAATCCGTATTTGGT (site GGAGTGGCTAC)"
readout_kind = "recombinant UMI read abundance (log10)"
numeric_value = 0.101

[[record]]
query_sequence = "AGTGAGACATGGACCGGTTTTCCCGGTAATCCGTATTTGGT (site ACTGAGACTAC)"
readout_kind = "recombinant UMI read abundance (log10)"
numeric_value = 0.312

[[record]]
query_sequence = "TGATAGGCATGGACCGGTTTTCCCGGTAATCCGTATTTGGT (site TGCTAGGCTAC)"
readout_kind = "recombinant UMI read abundance (log10)"
numeric_value = 0.0143

[[record]]
query_sequence = "TATTTGGCATGGACCGGTTTTCCCGGTAATCCGTATTTGTC (site TATTTGGCTTA)"
readout_kind = "recombinant UMI read abundance (log10)"
numeric_value = 0.00596

[[record]]
query_sequence = "CGGAAGCCATGGACCGGTTTTCCCGGTAATCCGTATTTGCA (site CGGAAGCCTTG)"
readout_kind = "recombinant UMI read abundance (log10)"
numeric_value = 0

